Provenance of the data: ChEMBL document CHEMBL1201862

Test system: OVCAR-8
Test: NCI tumour cell line growth inhibition, 48 h
Active and inactive are the calls of the source. Rule as the data show it: active = GI50 up to about 1.1 µM and inactive = higher.
MEASUREMENT LABEL: GI50

# molecule COc1cc(C2c3cc4c(cc3CC3COC(=O)N32)OCO4)cc(OC)c1OC (stereo not drawn) ; its GI50 = 4.03 µM (inactive)

The recorded GI50 for `CC(C)(C)C(=O)CC(=O)C(F)(F)C(F)(F)C(F)(F)F` is 20.7 µM (inactive)

Summary for this molecule, `NNc1ncc2c(n1)-c1ccccc1OC2` : GI50 is 44.4 µM (inactive)

Record `CCOC(=O)c1c(NC(=O)c2cccs2)sc2c1CCCC2` . Reported GI50: 61.9 µM (inactive)

Lab book: GI50 of COC1CC(OC2OC(CO)C(O)C(O)C2O)/C(=C\C#N)C(O)C1OC (stereo not drawn) noted as > 100 µM (inactive)

The value of GI50 measured for the molecule CC(C(=O)N1C(=O)N(C(=O)C(C)C(O)c2ccccc2)C(c2ccccc2)C1c1ccccc1)C(O)c1ccccc1 (stereo not drawn) turned out to be 7.98 µM (inactive)

For this molecule ( C=C[C@]1(C)CC(=O)C(C(C)C=O)[C@]12C(=O)Oc1cccc(C)c1C2=O (stereo partly drawn) ), measured GI50 is 16.1 µM (inactive)

Reported GI50 of `C=CCN(c1cc(OCc2ccccc2)c2[nH]cc(C)c2c1)S(C)(=O)=O` : 61.9 µM (inactive)

The molecule identified as `O=C(O)/C(=C/c1ccccc1[N+](=O)[O-])c1ccccc1` registered its GI50 at > 100 µM (inactive)

Memo: `CCOc1ccc(NC(=O)C2=C(C)NC(C)=C(C(=O)Nc3ccc(OCC)cc3)C2c2ccccc2)cc1` , reported GI50: > 100 µM (inactive)

Memo: `N=c1c2c(-c3ccccc3)c[nH]c2ncn1N` , reported GI50: > 100 µM (inactive)

Quick note, GI50 for `O=C(/N=c1/[nH]/c(=N/C(=O)c2ccccc2)ss1)c1ccccc1` landed at 27.3 µM (inactive)

Per the records, this molecule ( `CSc1nc(CO)c(CO)n1C` ) has GI50 equal to > 100 µM (inactive)

molecule `COC(=O)c1ccc(CCC2=CC(=O)C(Br)=CC2=O)cc1` , GI50 observed: 16.3 µM (inactive)

Entry `CCN(CC)CCC(=O)c1ccc(Cl)c(Cl)c1` — recorded GI50 = 37.2 µM (inactive)

Field GI50 (entry `COC(=O)c1ccc(NCC2=CC(=O)C=CC2=O)cc1` ) reads 13.9 µM (inactive)

// field: GI50; key: CC(=O)N(CN1C(=O)CCC1C(=O)O)c1cccc(O)c1 (stereo not drawn) ; value = > 100 µM (inactive)

Value of GI50 reported for the molecule O=C(Nc1ccc(Cl)cc1Cl)OC(Cn1cncn1)c1ccc(Cl)cc1Cl (stereo not drawn) is 17.3 µM (inactive)

GET /value?item= `CCOC(=O)CSc1nc(N)c2c(-c3ccc(OC)c(OC)c3)c3c(nc2n1)CCCC3` &field=GI50 returns 24.3 µM (inactive)

Measured GI50 of `O=c1[c-](-c2ccccc2)[se]c(-c2ccccc2)[n+]1-c1ccccc1` : 3.8 µM (inactive)

Reported GI50 ( `CCCn1c(SCC)c2cc3cc4ccccc4cc3cc2c1-c1nc(F)nc(F)n1` ) = > 100 µM (inactive)

The reported GI50 of the molecule CC(SCc1ccccc1)C(=O)O (stereo not drawn) was > 100 µM (inactive)

Form field GI50, entry COc1ccc(C2SCc3nc4ccccc4n32)cc1 (stereo not drawn) : 6.07 µM (inactive)

###

Kindly state GI50 for each of the entries shown.
Tested on: ACHN
Experiment: NCI tumour cell line growth inhibition, 48 h
Calls of active or inactive are those of the source. No stated cut-off is given here; in the data, active = GI50 up to about 1.1 µM and inactive = higher.

Reported GI50 ( `Cc1ccc(CC(=O)Nc2ccc(NC(=O)/C=C/NC(=O)/C=C/c3ccc(-c4ccccc4)cc3)cc2C(=O)c2ccccc2)cc1` ) = 3.08 µM (inactive)

Measured GI50, `Cc1cc2c(cc1C)[n+]([O-])c(C(=O)C/C(=N/NC(=O)CC#N)C(=O)Nc1ccccc1C(F)(F)F)c(C)[n+]2[O-]` : 29.7 µM (inactive)

Lookup result for CN1CCN2c3ccccc3CC(C#N)(C#N)C2C1 (stereo not drawn) ; measured GI50: > 100 µM (inactive)

###

Tested on: COLO 205
Experiment: NCI tumour cell line growth inhibition, 48 h
The source made the active and inactive calls. No stated cut-off is given here; in the data, active = GI50 up to about 1.1 µM and inactive = higher.
Select the matching outcome among True for active, False for inactive

Test call for this compound, please: CCOC(=O)C1S/C(=N\c2ccc(OC)c(OC)c2)N=C1C (stereo not given)
False

# outcome recorded in this test, key = `COC(=O)Cc1cc(OC)c(OC)cc1Br`
False

Entry `COc1ccc2c(c1O)-c1cc(O)cc3c1[C@@H](C2)N(C)CC3` : call = ?
False

Test call, this compound: CCCC(=O)Nc1cc(/C=C/C(=O)N2CC(CCl)c3c2cc(OC(C)=O)c2[nH]cc(C)c32)n(C)c1 (stereo not given)
True

What did this assay record as the result for `COc1cc(/C=C(\C#N)C(=O)c2ccccc2)ccc1OCc1ccccc1` ?
False

Recorded test call requested for `Cc1ccc(S(=O)(=O)Oc2nc3ccccc3nc2OS(=O)(=O)c2ccc(C)cc2)cc1`
False

Per the records of this test, what outcome belongs to `CS/C(=N/C#N)NCCc1c[nH]c2ccccc12` ?
False

Call for entry `C[N+](C)(C)CC(=O)N/N=C/c1oc(-c2cccc([N+](=O)[O-])c2)c(-c2cccc([N+](=O)[O-])c2)c1[N+](=O)[O-]` :
False

What did the test return for `CC(C)(C)N1Cc2ccccc2/C(=C/Sc2ccccc2)C1=O` ?
False

Recorded test call requested for CCOC(=O)CCC(NC(=O)OCc1ccccc1)C(=O)NC(CCC(=O)OCC)C(=O)NNC(=O)OC(C)(C)C (stereo not given)
False

Each compound tested received a call. Report the one for `c1ccc2c(c1)ccn1ccc3c4ccccc4nc-3c21` .
True

Dear all, I need the recorded test outcome for `C[C@@H]1S[C@H](c2c(F)cccc2Cl)n2c1nc1ccccc12` , thank you.
False

Hello, I am checking results. What call was entered for `Nc1nc2c(C(=O)O)c3ccc([N+](=O)[O-])cc3c(=O)n2c2ccccc12` ?
False

Outcome logged for `COC(=O)C1=C(c2ccc3c(c2)OCO3)O[C@H](c2ccc3c(c2)OCO3)[C@H]1COC(C)=O` in this assay:
False

Could you please tell me the result logged for `COc1c(-c2nc3ccc(N4CCN(C)CC4)cc3[nH]2)cc(OC)c2[nH]c(CO)nc12` in this assay?
False

What was the test verdict on COc1ccc(CC2c3cc(Oc4cc(CC5c6cc(OC)c(OC)cc6CCN5C)ccc4O)c(OC)cc3CCN2C)cc1 (stereo not given) ?
False

What is the recorded call for this compound in the test? `NC1=NS(=O)(=O)Nc2[nH]c(-c3ccccc3)nc21`
False

I'd appreciate the recorded outcome for `CCN(CC)Cc1cc(Nc2c3ccccc3nc3c4ccccc4n(C)c23)cc(CN(CC)CC)c1O` from this test.
False

Called result for COC1/C=C\C=C(/C)C(=O)NC2=CC(=O)C(NCCCl)=C(CC(C)CC(OC)C(O)C(C)/C=C(/C)C1OC(N)=O)C2=O (stereo not given)
True

Outcome logged for `O=C(NC(=O)c1cn(CCN(CCO)C(=O)NCCCCCCNC(=O)N(CCO)CCn2cc(C(=O)NC(=O)OCc3ccccc3)c(=O)[nH]c2=O)c(=O)[nH]c1=O)OCc1ccccc1` in this assay:
False

Field: outcome | Entry: `Cc1cc(C)c(/N=N/c2c(O)c(S(=O)(=O)O)cc3cc(S(=O)(=O)O)ccc23)cc1C`
False

Which result was noted for this compound in the test: `CCOC(=O)C(=O)Nc1ccccc1C(F)(F)F`
False

For `COC(=O)c1ccc(NCC2=CC(=O)C=CC2=O)cc1` , which call appears in the assay record?
False

Please share the test call associated with C=C[C@]1(C)CC(=O)C(C(C)C=O)[C@]12C(=O)Oc1cccc(C)c1C2=O (stereo not given in full) .
False

Check the results log: what was the call for Cc1ccc(C)c(C(=O)CC2OC(O)C(Cl)C2Cl)c1 (stereo not given) ?
False

Please let me know the test result on file for CC(C(=O)N1C(=O)N(C(=O)C(C)C(O)c2ccccc2)C(c2ccccc2)C1c1ccccc1)C(O)c1ccccc1 (stereo not given) .
False

For this compound, state the assay outcome: COCC(/N=C\N1CCCc2ccccc2[C@@H]1CCCCl)C(C)(C)C (stereo not given in full)
True

What did this assay record as the result for `CC1(C)N=C(N)N=C(N)N1c1ccc(CCCCCCc2ccc(S(=O)(=O)F)cc2)cc1` ?
True

What was the test verdict on `Cn1c(N)c(/N=N/c2ccc(S(N)(=O)=O)cc2)c(=O)n(C)c1=O` ?
False

Short answer needed: outcome of this test for `COc1ccc(C#Cn2nnc3ccccc32)cc1` ?
False

How did this test come out for `CCOC(=O)CN1C(=O)c2ccc(NC(=O)C(=O)O)cc2S1(=O)=O` ?
False

Hello, I am checking results. What call was entered for CSC12c3cc(C)n(-c4ccc([N+](=O)[O-])cc4)c3CC(C)(C)CN1C(=O)C2Oc1ccccc1 (stereo not given) ?
False

Entry `COC(=O)c1cc2ccc(O)c(O)c2cn1` : call = ?
False

Kindly provide the recorded test outcome for the following compound: `COC(NC(=O)Nc1ccc(C)cc1)(C(F)(F)F)C(F)(F)F`
False

What was the test verdict on C[N+](C)(C)[BH-](Br)C(O)O (stereo not given) ?
False

What classification did CC1(C)OCC(C2OC(On3nnc4ccc(Cl)cc43)C3OC(C)(C)OC23)O1 (stereo not given) end up with in this test?
False

Short answer needed: outcome of this test for CN1C(=O)C2C(=O)N(Cc3ccccc3)CC(=O)N2c2cccnc21 (stereo not given) ?
False

What was the test verdict on `Cc1nc(Nc2ccccc2)sc1C(=O)NNc1ccc([N+](=O)[O-])cc1[N+](=O)[O-]` ?
False

Fill in: this test's call for `COc1cc(OC)cc(-c2cc(O)c3cc4c(cc3n2)OCO4)c1` is ___
True

Recorded call for `Cc1cc(NCCCCCCNc2cc(C)nc3ccc(Cl)cc23)c2cc(Cl)ccc2n1` ?
False
